Examples of molecules with documented IC50 follow.
subject_of_test: BChE (EC 3.1.1.8, from human serum) (Homo sapiens)
Construct: BChE (EC 3.1.1.8, from human serum); purchased Sigma-Aldrich (St. Louis, MO, USA); host or cells: human serum
Sequence (P06276 29-602): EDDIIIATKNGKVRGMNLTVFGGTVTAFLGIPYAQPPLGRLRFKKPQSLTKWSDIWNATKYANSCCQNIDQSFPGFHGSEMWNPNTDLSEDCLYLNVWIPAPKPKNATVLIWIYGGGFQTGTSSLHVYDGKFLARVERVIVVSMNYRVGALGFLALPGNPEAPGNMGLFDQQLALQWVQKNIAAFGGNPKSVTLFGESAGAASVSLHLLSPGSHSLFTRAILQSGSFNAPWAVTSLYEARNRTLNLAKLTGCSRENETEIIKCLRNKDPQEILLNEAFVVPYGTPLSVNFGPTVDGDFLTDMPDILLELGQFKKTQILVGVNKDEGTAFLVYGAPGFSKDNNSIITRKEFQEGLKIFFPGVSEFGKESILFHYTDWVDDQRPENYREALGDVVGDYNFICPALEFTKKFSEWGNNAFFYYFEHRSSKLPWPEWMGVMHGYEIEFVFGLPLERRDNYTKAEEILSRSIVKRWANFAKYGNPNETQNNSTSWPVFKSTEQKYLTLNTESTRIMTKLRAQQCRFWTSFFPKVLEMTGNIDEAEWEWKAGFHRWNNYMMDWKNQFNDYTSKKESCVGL
experiment: biochemical
test_parameters: mean ± SD of three separate experiments
A number alone suffices; assume µM.

The following molecules have reported results that may help.
given_smiles	subject_of_test	IC50 [µM]
COc1ccc2c(c1)CCN(Cc1ccc(C(=O)N3CCCC3)cc1)C2	BChE (EC 3.1.1.8, from human serum) (Homo sapiens)	12.6
CC(C)N(CCNC(=O)c1ccc(CN2CCc3ccccc3C2)cc1)C(C)C	BChE (EC 3.1.1.8, from human serum) (Homo sapiens)	9.98

Give the reported IC50 for O=C(c1ccc(CN2CCc3cc(Br)ccc3C2)cc1)N1CCCC1 (system: BChE (EC 3.1.1.8, from human serum) (Homo sapiens)).
8.38
